System: Mus musculus
Method notes: Phototoxicity in Swiss Albino mouse assessed as ear erythema at 140 mg/kg, po after 96 hrs of irradiation
Format: organism-based
Design: dose 140 mg/kg, route oral
Experimental parameters: in vivo
Measurement kind: Activity

Use these answered entries as a reference point.
Compound	Activity
CC1(C)COCN1c1nc2c(cc1[N+](=O)[O-])c(=O)c(C(=O)O)cn2C(C)(C)C	Toxic
O=C(O)c1cn2c(n1)CN(c1nc3c(cc1[N+](=O)[O-])c(=O)c(C(=O)O)cn3-c1ccc(F)cc1)CC2	Non-toxic
CC1CN(c2nc3c(cc2[N+](=O)[O-])c(=O)c(C(=O)O)cn3-c2ccc(F)cc2)CC(C)O1 (configuration not stated)	Non-toxic
CCn1cc(C(=O)O)c(=O)c2cc(F)c(N3CCNC(C)C3)c(F)c21 (configuration not stated) [LOMEFLOXACIN]	Toxic
O=C(O)c1cn(-c2ccc(F)cc2)c2nc(N3CCSCC3)c([N+](=O)[O-])cc2c1=O	Non-toxic
CC(C)(C)n1cc(C(=O)O)c(=O)c2cc([N+](=O)[O-])c(N3CCSCC3)nc21	Non-toxic

Field: next compound
Result for COc1ccc(CC2C3=C(CCCC3)CCN2c2nc3c(cc2[N+](=O)[O-])c(=O)c(C(=O)O)cn3C2CC2)cc1 (configuration not stated) , tested on Mus musculus, Activity: Non-toxic

###

Measured Activity, listed per entry.
Test system: Mus musculus
Method notes: Phototoxicity in Swiss Albino mouse assessed as ear thickness at 140 mg/kg, po after 24 hrs of irradiation
Assay type: organism-based
Parameters: dose 140 mg/kg, route oral
Experimental parameters: in vivo
Write the number in mm without appending the unit.

Use these answered entries as a reference point.
Molecule	Measurement target	Units text	Experimental value
CCn1cc(C(=O)O)c(=O)c2cc(F)c(N3CCNC(C)C3)c(F)c21 (centres undefined)	Mus musculus	mm	0.48
O=C(O)c1cn(-c2ccc(F)cc2)c2nc(N3CCSCC3)c([N+](=O)[O-])cc2c1=O	Mus musculus	mm	0.26

Result for COc1ccc(CC2C3=C(CCCC3)CCN2c2nc3c(cc2[N+](=O)[O-])c(=O)c(C(=O)O)cn3C2CC2)cc1 (centres undefined) , tested on Mus musculus, Activity: 0.34

Result for CC1CN(c2nc3c(cc2[N+](=O)[O-])c(=O)c(C(=O)O)cn3-c2ccc(F)cc2)CC(C)O1 (centres undefined) , tested on Mus musculus, Activity: 0.28

###

Method notes: Inhibition of Mycobacterium smegmatis DNA gyrase supercoiling activity
Design: species or system Mycolicibacterium smegmatis
Measured IC50, listed per entry.
Write the number in µM without appending the unit.

Use these answered entries as a reference point.
Molecule	Experimental value
CN1CCN(c2nc3c(cc2[N+](=O)[O-])c(=O)c(C(=O)O)cn3-c2ccc(F)cc2)CC1c1ccccc1 (centres undefined)	99.3
COc1ccc(CC2C3=C(CCCC3)CCN2c2nc3c(cc2[N+](=O)[O-])c(=O)c(C(=O)O)cn3C2CC2)cc1 (centres undefined)	56.5
CC1(C)COCN1c1nc2c(cc1[N+](=O)[O-])c(=O)c(C(=O)O)cn2C(C)(C)C	256
O=C(O)c1cn(C2CC2)c2cc(N3CCNCC3)c(F)cc2c1=O	15.1
CC1CN(c2nc3c(cc2[N+](=O)[O-])c(=O)c(C(=O)O)cn3-c2ccc(F)cc2)CC(C)O1 (centres undefined)	226
CC(C)(C)n1cc(C(=O)O)c(=O)c2cc([N+](=O)[O-])c(N3CCC4(CC3)OCCO4)nc21	92.5

Field: next molecule
Looking up "CC(C)(C)n1cc(C(=O)O)c(=O)c2cc([N+](=O)[O-])c(N3CCSCC3)nc21" , I found its IC50 recorded as 102

The measured values listed here are drawn from ChEMBL document CHEMBL1138270.
